Test system: C. albicans Wisc.
ASSAY_DETAILS: In vitro antifungal activity, MIC (modified Autotiter method)
Assay type: cell-based, Candida albicans
CONDITION_DETAILS: Candida albicans, 20 h, 18-20 hours at 37° C.; read-out: MIC C. albicans Wisc.
Quick reference: log10(MIC) of the listed items.
RECORDED_ENDPOINT: log10(MIC) (log10 of the value in µg/mL)

CCCCCCNc1cc[n+](CCCCCCCCCCCC[n+]2ccc(NCCCCCC)cc2)cc1 [Example 8]
0.00
c1c[n+](CCCCCC[n+]2ccc(NC3CCCCC3)cc2)ccc1NC1CCCCC1 [Example 36]
2.10
CCCCCCNc1cc[n+](CCCC[n+]2ccc(NCCCCCC)cc2)cc1 [Example 16]
2.10
CCCNc1cc[n+](CCCCCCCCCC[n+]2ccc(NCCC)cc2)cc1 [Example 30]
0.89
CCCCC(CC)CNc1cc[n+](CCCCCC[n+]2ccc(NCC(CC)CCCC)cc2)cc1 (centres unmarked) [Example 54]
0.89
CCCCCCCNc1cc[n+](CCCCCC[n+]2ccc(NCCCCCCC)cc2)cc1 [Example 61]
0.80
CCCCCCCCNc1cc[n+](CCCCCCCCCCCCCC[n+]2ccc(NCCCCCCCC)cc2)cc1 [Example 46]
0.89
CCCCCCCCNc1cc[n+](CCCCCCCCC[n+]2ccc(NCCCCCCCC)cc2)cc1 [Example 44A]
0.29

====

Test system: C. albicans Wisc.
ASSAY_DETAILS: In vitro antifungal activity, MIC (modified Autotiter method)
Format: cell-based, Candida albicans
CONDITION_DETAILS: Candida albicans, 20 h, 18-20 hours at 37° C.; read-out: MIC C. albicans Wisc.
Description: The antibacterial and antifungal activity of representative examples of the compounds of Formula I was determined using a modification of the Autotiter method described by Goss, et al. Applied Microbiology 16 (9) 1,414-1,416 (1968) in which a 1,000 mcg./ml. solution of the test compound is prepared. To the first cup of the Autotray is added 0.1 ml. of the test solution. […]
Measured MIC accompanies every entry in the list below.
RECORDED_ENDPOINT: MIC

c1c[n+](CCCCCCCCCC[n+]2ccc(NC3CCCCC3)cc2)ccc1NC1CCCCC1
7.8 µg/mL
CCCCC(CC)CNc1cc[n+](CCCCCCCCC[n+]2ccc(NCC(CC)CCCC)cc2)cc1 (centres unmarked)
3.9 µg/mL
CCCCCCCCCCNc1cc[n+](CCCCCCCC[n+]2ccc(NCCCCCCCCCC)cc2)cc1
15.6 µg/mL
CCCCCCCCCNc1cc[n+](CCCCCCCCCCCC[n+]2ccc(NCCCCCCCCC)cc2)cc1
7.8 µg/mL
CCCCCCCNc1cc[n+](CCCCCCC[n+]2ccc(NCCCCCCC)cc2)cc1
3.9 µg/mL

====

Tested on: E. coli 100/B22
ASSAY_DETAILS: In vitro antibacterial activity, MIC (modified Autotiter method)
Assay type: cell-based, Escherichia coli
CONDITION_DETAILS: Escherichia coli, 100/B22, 20 h, 18-20 hours at 37° C.; read-out: MIC E. coli 100/B22
Description: The antibacterial and antifungal activity of representative examples of the compounds of Formula I was determined using a modification of the Autotiter method described by Goss, et al. Applied Microbiology 16 (9) 1,414-1,416 (1968) in which a 1,000 mcg./ml. solution of the test compound is prepared. To the first cup of the Autotray is added 0.1 ml. of the test solution. […]
RECORDED_ENDPOINT: MIC (µg/mL)

Clc1ccc(Nc2cc[n+](CCCC[n+]3ccc(Nc4ccc(Cl)cc4)cc3)cc2)cc1 [Example 76C]
15.6
Clc1ccc(Nc2cc[n+](CCCCCCCCC[n+]3ccc(Nc4ccc(Cl)cc4)cc3)cc2)cc1
1.95
c1c[n+](CCCCCCCC[n+]2ccc(NC3CCCCC3)cc2)ccc1NC1CCCCC1
62.5
CCCCCCCCCNc1cc[n+](CCCCCCC[n+]2ccc(NCCCCCCCCC)cc2)cc1
1.95
c1c[n+](CCCCCCCCCC[n+]2ccc(NC3CCCCC3)cc2)ccc1NC1CCCCC1
15.6
CCCCCCCCNc1cc[n+](CCCCCCCCCCCCCC[n+]2ccc(NCCCCCCCC)cc2)cc1
3.9
CCCCC(CC)CNc1cc[n+](CCCCCCC[n+]2ccc(NCC(CC)CCCC)cc2)cc1 (centres unmarked)
3.9

====

Tested on: S. pyogen. C203
ASSAY_DETAILS: In vitro antibacterial activity, MIC (modified Autotiter method)
Assay type: cell-based, Streptococcus pyogenes
CONDITION_DETAILS: Streptococcus pyogenes, 20 h, 18-20 hours at 37° C.; read-out: MIC S. pyogen. C203
RECORDED_ENDPOINT: MIC (µg/mL)

CCCCCCCCNc1cc[n+](CCCCCC[n+]2ccc(NCCCCCCCC)cc2)cc1 [Example 13]
0.5
CCCCCCCCCNc1cc[n+](CCCCCCCCCCCC[n+]2ccc(NCCCCCCCCC)cc2)cc1 [Example 52]
1.95
Nc1cc[n+](CCCCCCCCCCCC[n+]2ccc(N)cc2)cc1 [V, reference compound]
1
CCCCCCCNc1cc[n+](CCCC[n+]2ccc(NCCCCCCC)cc2)cc1 [Example 20]
0.49

====

Test system: P. mirab. MGH-1
ASSAY_DETAILS: In vitro antibacterial activity, MIC (modified Autotiter method)
Format: cell-based, Proteus mirabilis
CONDITION_DETAILS: 18-20 hours at 37° C.
Listing: MIC P. mirab. MGH-1 of selected molecules
RECORDED_ENDPOINT: MIC P. mirab. MGH-1 (µg/mL)

CCCCCCCNc1cc[n+](CCCCCCCCCCCCCC[n+]2ccc(NCCCCCCC)cc2)cc1 [Example 1D]
1.54
CCCCCCCCNc1cc[n+](CCCCCC[n+]2ccc(NCCCCCCCC)cc2)cc1 [Example 14]
15.6
CCCCCCCNc1cc[n+](CCCCCCCCCC[n+]2ccc(NCCCCCCC)cc2)cc1 [Example 27]
7.8
CCCCCCCCCNc1cc[n+](CCCCCC[n+]2ccc(NCCCCCCCCC)cc2)cc1 [Example 48]
7.8
CCCCCCCCNc1cc[n+](CCCCCC[n+]2ccc(NCCCCCCCC)cc2)cc1 [Example 13]
31.3
CCCCCCCCNc1cc[n+](CCCCCCCCCC[n+]2ccc(NCCCCCCCC)cc2)cc1 [Example 9D]
3.9
CCCCCCCCNc1cc[n+](CCCCCCCC[n+]2ccc(NCCCCCCCC)cc2)cc1 [Example 12]
3.9
CCCCCCNc1cc[n+](CCCCCCCCCCCC[n+]2ccc(NCCCCCC)cc2)cc1 [Example 7]
6.0
CCCCCCCCNc1cc[n+](CCCCCCCCCC[n+]2ccc(NCCCCCCCC)cc2)cc1 [Example 10C]
1.95
CCCCCCCNc1cc[n+](CCCCCCCC[n+]2ccc(NCCCCCCC)cc2)cc1 [Example 23]
62.6
CCCCCCCNc1cc[n+](CCCCCCCCCCCC[n+]2ccc(NCCCCCCC)cc2)cc1 [Example 4]
1.95
CCCCCCCNc1cc[n+](CCCCCCCCC[n+]2ccc(NCCCCCCC)cc2)cc1 [Example 25]
31.3
CCCCCCCNc1cc[n+](CCCCCCCCCCCCCC[n+]2ccc(NCCCCCCC)cc2)cc1 [Example 2]
3.9
CCCCC(CC)CNc1cc[n+](CCCCCCCCCC[n+]2ccc(NCC(CC)CCCC)cc2)cc1 (centres unmarked) [Example 59]
7.8
CCCCCCCNc1cc[n+](CCCCCCCCC[n+]2ccc(NCCCCCCC)cc2)cc1 [Example 24]
15.6
CCCCCCNc1cc[n+](CCCCCCCCCCCCCC[n+]2ccc(NCCCCCC)cc2)cc1 [Example 6]
3.9

====

System: A. niger 16404
ASSAY_DETAILS: In vitro antifungal activity, MIC (modified Autotiter method)
Type: cell-based, Aspergillus niger
CONDITION_DETAILS: Aspergillus niger, 16404, 20 h, 18-20 hours at 37° C.; read-out: MIC A. niger 16404
RECORDED_ENDPOINT: MIC

CCCCC(CC)CNc1cc[n+](CCCCCCCC[n+]2ccc(NCC(CC)CCCC)cc2)cc1 (stereo not shown)
15.6 mg/L
Nc1cc[n+](CCCC[n+]2ccc(N)cc2)cc1 [III, reference compound]
500 mg/L
CCCCCCCCNc1cc[n+](CCCCCCCCCCCCCC[n+]2ccc(NCCCCCCCC)cc2)cc1
15.6 mg/L
CCCCCCCCCNc1cc[n+](CCCCCCCCC[n+]2ccc(NCCCCCCCCC)cc2)cc1
7.8 mg/L

====

Tested on: young adult male Swiss-Webster strain albino mice
ASSAY_DETAILS: Acute oral toxicity (ALD50)
Assay type: in vivo
CONDITION_DETAILS: 1000 mg/kg oral, suspension in 1% G.T.
Readings of Mortality 24 Hrs for the listed compounds
RECORDED_ENDPOINT: Mortality 24 Hrs

CCCCCCCNc1cc[n+](CCCCCCCCCCCC[n+]2ccc(NCCCCCCC)cc2)cc1 [Example 3]
1/3
CCCCCCNc1cc[n+](CCCCCCCCCCCCCC[n+]2ccc(NCCCCCC)cc2)cc1 [Example 5C]
1/3
CCCCCCCCNc1cc[n+](CCCCCC[n+]2ccc(NCCCCCCCC)cc2)cc1 [Example 14]
0/3
CCCCCCCNc1cc[n+](CCCCCCCCCCCCCC[n+]2ccc(NCCCCCCC)cc2)cc1 [Example 1D]
2/3

src = patent US4206215A
